Biological target: APOL1 G2 (Homo sapiens, UniProt O14791, DEL388-389)
Construct: expressed in transfected cells; host or cells: HEK293 T-REx clonal line stably expressing GCaMP6f (HEK T-REx/GCaMP6f/APOL1 G2 K6.3), doxycycline induced
Sequence (O14791 with tags, fused parts or gaps DEL388-389): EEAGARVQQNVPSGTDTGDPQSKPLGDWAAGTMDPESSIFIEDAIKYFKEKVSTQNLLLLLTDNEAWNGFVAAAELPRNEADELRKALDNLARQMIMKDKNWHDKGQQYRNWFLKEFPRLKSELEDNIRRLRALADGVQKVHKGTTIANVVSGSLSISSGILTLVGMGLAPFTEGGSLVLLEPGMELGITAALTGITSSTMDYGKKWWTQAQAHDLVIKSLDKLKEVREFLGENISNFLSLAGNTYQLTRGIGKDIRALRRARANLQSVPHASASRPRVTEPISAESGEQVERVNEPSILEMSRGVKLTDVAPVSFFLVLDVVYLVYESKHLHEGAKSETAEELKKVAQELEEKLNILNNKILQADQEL
Assay: APOL1-mediated calcium transport (calcium influx) assay, HEK T-REx/GCaMP6f/APOL1 G2 K6.3 cells, FLIPR TETRA
Type: cell-based
Conditions: prevention of calcium influx; geometric mean of at least 2 assay runs; † = average of a technical replicate from a single assay run
observation.type: AC50 (nM)
The figure you give is taken to be in nM; do not add the unit.

CC[C@]1(O)C[C@@H](N2C(=O)CCc3cc(OCCN4CCC5(CC4)C(=O)Nc4ccc(Cl)cc45)cnc32)C1 (single isomer, unassigned)	621

AC50 lookup needed for `C[C@]1(O)C[C@@H](n2cnc3cc(OCCN4CCC5(CC4)C(=O)Nc4ccc(Cl)cc45)cc(C(F)(F)F)c32)C1` , thanks.
597

Please report the recorded AC50 for `O=C1Nc2ccc(Cl)cc2C12CCN(CCOc1cnc(N3CC4(CC(O)C4)C3)nc1)CC2` .
531

Dear colleague, I am looking for the recorded AC50 of the following molecule: `CS(=O)(=O)C1(c2ccc(OCCN3CCC4(CC3)C(=O)Nc3ccc(Cl)cc34)cc2)CCC1`
756

Fill blank: measured AC50 of the molecule CC(COc1ccc(S(C)(=O)=O)cc1)N1CCC2(CC1)C(=O)N(C1CC(O)C1)c1ccc(Cl)cc12 (single isomer, unassigned) [Compound 208] is ____.
1550

Tell me the measured AC50 of CS(=O)(=O)c1ccc(OCCN2CCC3(CC2)C(=O)Nc2ccc(Cl)cc23)cc1C(F)CF (single isomer, unassigned) [Compound 218] , please.
690

Entry `CS(=O)(=O)c1c(F)cc(OCCN2CCC3(CC2)C(=O)Nc2ccc(C#N)cc23)cc1F` has what AC50?
973

Recorded AC50 for CC(O)c1ncc(OCCN2CCC3(CC2)C(=O)Nc2ccc(C(F)F)cc23)cc1C(F)(F)F (single isomer, unassigned) [Compound 288] , please?
369

The reported numbers originate from patent US12344610B2.
